- assay-system: UniProt:Q12809
- experimental-protocol: Inhibition of human ERG expressed in CHO cells using -80 mV holding potential measured after 3 mins
- Type: cell-based
endpoint: IC50 (µM)

[
  {
    "molecule": "O=c1ccc2ncc(=O)n3c2n1C[C@H]3CN1CCC(NCc2cc3c(cn2)OCCC3)CC1 [GEPOTIDACIN]",
    "readout-number": 1310
  }
]

====

- experimental-protocol: Selectivity ratio of IC50 for human K562 cells to MIC for methicillin-sensitive Staphylococcus aureus ATCC 29213
- Assay type: toxicity

[
  {
    "record-smiles": "COc1ccc2nccc(CC[C@H]3OC[C@H](NCc4ccc5c(c4)OCCO5)CO3)c2c1",
    "selectivity ratio": 3.5
  }
]

====

- assay-system: DNA gyrase (Staphylococcus aureus, UniProt P0A0K8+P20831)
- Sequence (P0A0K8 whole entry): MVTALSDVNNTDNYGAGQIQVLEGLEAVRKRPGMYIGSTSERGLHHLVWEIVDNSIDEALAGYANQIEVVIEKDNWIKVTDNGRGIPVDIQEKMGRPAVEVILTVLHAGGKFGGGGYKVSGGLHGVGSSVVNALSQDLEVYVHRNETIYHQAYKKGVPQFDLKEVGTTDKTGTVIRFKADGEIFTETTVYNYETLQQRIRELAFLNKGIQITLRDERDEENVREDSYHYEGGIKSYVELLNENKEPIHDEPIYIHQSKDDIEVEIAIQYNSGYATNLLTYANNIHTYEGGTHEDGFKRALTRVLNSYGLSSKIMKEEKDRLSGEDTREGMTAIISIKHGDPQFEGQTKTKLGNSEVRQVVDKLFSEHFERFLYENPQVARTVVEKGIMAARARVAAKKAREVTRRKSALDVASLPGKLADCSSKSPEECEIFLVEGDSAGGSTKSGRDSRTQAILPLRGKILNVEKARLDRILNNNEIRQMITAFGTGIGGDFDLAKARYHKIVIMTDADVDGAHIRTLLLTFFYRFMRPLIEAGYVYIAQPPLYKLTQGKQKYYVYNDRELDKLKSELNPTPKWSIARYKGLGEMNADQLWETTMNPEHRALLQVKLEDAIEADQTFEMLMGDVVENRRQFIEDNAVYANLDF
- Sequence (P20831 whole entry): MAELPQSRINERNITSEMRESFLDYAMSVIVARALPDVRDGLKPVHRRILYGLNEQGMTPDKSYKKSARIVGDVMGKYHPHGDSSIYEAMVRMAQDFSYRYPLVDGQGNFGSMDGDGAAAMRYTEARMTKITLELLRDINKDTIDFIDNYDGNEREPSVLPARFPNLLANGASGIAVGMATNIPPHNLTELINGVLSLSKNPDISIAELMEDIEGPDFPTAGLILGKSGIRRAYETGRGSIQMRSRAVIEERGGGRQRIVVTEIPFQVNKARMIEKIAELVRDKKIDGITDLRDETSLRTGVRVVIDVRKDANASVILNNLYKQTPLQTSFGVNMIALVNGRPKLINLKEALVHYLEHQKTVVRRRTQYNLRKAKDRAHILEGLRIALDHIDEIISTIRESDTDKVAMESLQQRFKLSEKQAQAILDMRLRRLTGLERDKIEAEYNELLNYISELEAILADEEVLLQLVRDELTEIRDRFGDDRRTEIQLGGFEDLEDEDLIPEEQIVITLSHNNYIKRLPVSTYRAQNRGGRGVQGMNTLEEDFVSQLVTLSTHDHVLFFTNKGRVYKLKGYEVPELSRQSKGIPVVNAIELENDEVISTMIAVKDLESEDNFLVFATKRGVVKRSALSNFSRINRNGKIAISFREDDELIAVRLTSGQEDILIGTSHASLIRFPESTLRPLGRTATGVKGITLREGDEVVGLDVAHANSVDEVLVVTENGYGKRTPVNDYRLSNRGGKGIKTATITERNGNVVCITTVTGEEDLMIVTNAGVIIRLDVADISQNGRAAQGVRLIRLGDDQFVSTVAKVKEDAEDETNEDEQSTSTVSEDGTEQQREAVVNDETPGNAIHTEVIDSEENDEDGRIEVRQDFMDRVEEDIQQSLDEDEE
- experimental-protocol: Inhibition of Staphylococcus aureus DNA gyrase supercoiling activity using pBR322 as substrate after 30 mins by agarose gel electrophoresis
- Assay type: protein-complex assay
endpoint: IC50 (µM)

[
  {
    "record-smiles": "COc1ccc2nccc(CC[C@H]3OC[C@H](NCc4ccc(Cl)cc4)CO3)c2c1",
    "readout-number": 1.2
  }
]

====

Documented IC50 across a set of molecules
- assay-system: Voltage-gated inwardly rectifying potassium channel KCNH2 (Homo sapiens, UniProt Q12809)
- Sequence (Q12809 whole entry): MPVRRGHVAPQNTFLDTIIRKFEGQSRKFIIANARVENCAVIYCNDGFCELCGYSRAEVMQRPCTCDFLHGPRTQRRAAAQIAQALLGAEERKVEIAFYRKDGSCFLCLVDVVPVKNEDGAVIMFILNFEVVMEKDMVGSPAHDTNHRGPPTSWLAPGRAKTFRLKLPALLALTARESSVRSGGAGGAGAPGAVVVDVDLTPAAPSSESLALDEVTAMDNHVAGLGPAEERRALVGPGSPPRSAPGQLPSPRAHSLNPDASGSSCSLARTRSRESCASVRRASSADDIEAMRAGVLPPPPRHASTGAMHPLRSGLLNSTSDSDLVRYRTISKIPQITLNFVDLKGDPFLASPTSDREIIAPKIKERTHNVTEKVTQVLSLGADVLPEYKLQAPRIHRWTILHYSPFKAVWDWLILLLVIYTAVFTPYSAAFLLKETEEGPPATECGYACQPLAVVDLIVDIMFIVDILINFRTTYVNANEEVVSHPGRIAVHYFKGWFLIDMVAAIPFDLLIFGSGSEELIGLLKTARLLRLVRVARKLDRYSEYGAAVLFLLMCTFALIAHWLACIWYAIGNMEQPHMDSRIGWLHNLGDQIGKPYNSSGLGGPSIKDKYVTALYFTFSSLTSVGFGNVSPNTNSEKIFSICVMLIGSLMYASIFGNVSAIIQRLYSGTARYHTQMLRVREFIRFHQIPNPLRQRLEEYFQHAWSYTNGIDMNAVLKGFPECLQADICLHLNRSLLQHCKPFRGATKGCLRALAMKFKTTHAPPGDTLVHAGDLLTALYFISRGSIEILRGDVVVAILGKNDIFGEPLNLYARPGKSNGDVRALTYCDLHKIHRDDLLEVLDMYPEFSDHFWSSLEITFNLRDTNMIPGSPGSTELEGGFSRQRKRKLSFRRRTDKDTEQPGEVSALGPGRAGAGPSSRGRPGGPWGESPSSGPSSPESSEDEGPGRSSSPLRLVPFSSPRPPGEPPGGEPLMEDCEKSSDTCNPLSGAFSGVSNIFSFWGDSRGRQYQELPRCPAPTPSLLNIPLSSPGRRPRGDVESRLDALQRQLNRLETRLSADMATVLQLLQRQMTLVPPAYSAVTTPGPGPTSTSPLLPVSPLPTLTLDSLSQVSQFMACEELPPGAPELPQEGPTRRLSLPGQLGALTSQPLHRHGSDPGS
- experimental-protocol: Inhibition of human ERG expressed in CHOK1 cells by patch clamp assay
- Type: cell-based
endpoint: IC50 (nM)

[
  {
    "record-smiles": "COc1ccc2nccc(CC[C@H]3OC[C@H](NCc4ccc5c(c4)OCCO5)CO3)c2c1",
    "units-label": "nM",
    "readout-number": 5100
  },
  {
    "record-smiles": "COc1ccc2nccc(CC[C@H]3OC[C@H](NCc4ccc(Cl)cc4)CO3)c2c1",
    "units-label": "nM",
    "readout-number": 2000
  },
  {
    "record-smiles": "COc1ccc2nccc(CC[C@H]3OC[C@H](NCc4ccc5c(n4)NC(=O)CO5)CO3)c2c1",
    "units-label": "nM",
    "readout-number": 2500
  },
  {
    "record-smiles": "COc1ccc2nccc(CCN3CCC(NCc4ccc(Cl)c(Cl)c4)CC3)c2c1",
    "units-label": "nM",
    "readout-number": 1000
  },
  {
    "record-smiles": "COc1ccc2nccc(CCN3CCC(NCc4cc5c(cn4)OCCO5)CC3)c2c1",
    "units-label": "nM",
    "readout-number": 1900
  },
  {
    "record-smiles": "COc1ccc2nccc(CC[C@H]3OC[C@H](NCc4cc5c(cn4)OCCC5)CO3)c2c1",
    "units-label": "nM",
    "readout-number": 12000
  },
  {
    "record-smiles": "COc1ccc2nccc(CC[C@H]3OC[C@H](NCc4ccc5c(n4)NC(=O)CS5)CO3)c2c1",
    "units-label": "nM",
    "readout-number": 1300
  },
  {
    "record-smiles": "COc1ccc2nccc(CC[C@H]3CC[C@H](NCc4cc5c(cn4)OCCO5)CC3)c2c1",
    "units-label": "nM",
    "readout-number": 940
  },
  {
    "record-smiles": "COc1ccc2nccc(CC[C@H]3CC[C@H](NCc4ccc5c(n4)NC(=O)CO5)CC3)c2c1",
    "units-label": "nM",
    "readout-number": 410
  },
  {
    "record-smiles": "COc1ccc2nccc(CC[C@H]3OC[C@H](NCc4ccc(Cl)c(Cl)c4)CO3)c2c1",
    "units-label": "nM",
    "readout-number": 4800
  },
  {
    "record-smiles": "COc1ccc2nccc(CC[C@H]3OC[C@H](NCc4cc5c(cn4)OCCO5)CO3)c2c1",
    "units-label": "nM",
    "readout-number": 9500
  },
  {
    "record-smiles": "COc1ccc2nccc(CC[C@H]3CC[C@H](NCc4ccc(Cl)c(Cl)c4)CC3)c2c1",
    "units-label": "nM",
    "readout-number": 2300
  },
  {
    "record-smiles": "COc1ccc2nccc(CC[C@H]3CC[C@H](NCc4ccc5c(c4)OCCO5)CC3)c2c1",
    "units-label": "nM",
    "readout-number": 260
  },
  {
    "record-smiles": "COc1ccc2nccc(CCN3CCC(NCc4ccc5c(n4)NC(=O)CO5)CC3)c2c1",
    "units-label": "nM",
    "readout-number": 3800
  },
  {
    "record-smiles": "COc1ccc2nccc(CCN3CCC(NCc4ccc5c(c4)OCCO5)CC3)c2c1",
    "units-label": "nM",
    "readout-number": 810
  }
]

====

- Species: Homo sapiens
- experimental-protocol: Inhibition of human topoisomerase-2 mediated kinetoplast DNA decatenation assessed as remaining activity at 100 uM relative to control
Documented Activity across a set of molecules

[
  {
    "record-smiles": "COc1ccc2nccc(CC[C@H]3OC[C@H](NCc4ccc(Cl)c(Cl)c4)CO3)c2c1",
    "Activity (%)": 93.2
  },
  {
    "record-smiles": "COc1ccc2nccc(CC[C@H]3OC[C@H](NCc4ccc5c(n4)NC(=O)CS5)CO3)c2c1",
    "Activity (%)": 91.1
  },
  {
    "record-smiles": "COc1ccc2nccc(CC[C@H]3OC[C@H](NCc4ccc5c(c4)OCCO5)CO3)c2c1",
    "Activity (%)": 84.2
  }
]
